# Assay: Calculated conditional stability constants for chelants with Ca^+2 at specified pH
# Type: physicochemical
# Condition Context: pH 3
# Excerpt: However, as the pH range of the present compositions are acidic (i.e., less than 7), the log alpha value (αm) is considered to be constant and approximately negligible. The calculated stability constants for a range of chelants with Fe^+3, Cu^+2, and Ca^+2 are given below in Table 3: […]
Reported Endpoint: log Conditional Stability Constant (@ pH) Ca^+2

# Compound, Reading
rows = [
    ("O=C(O)CC(NCCNC(CC(=O)O)C(=O)O)C(=O)O (mixture of isomers)", "−7.42"),
    ("CC(C(=O)O)N(CC(=O)O)CC(=O)O (stereo not shown)", "−1.06"),
    ("O=C(O)CN(CCN(CC(=O)O)CC(=O)O)CCN(CC(=O)O)CC(=O)O", "−3.72"),
    ("O=C(O)CC[C@@H](C(=O)O)N(CC(=O)O)CC(=O)O", "−3.88"),
]
